test-name: in vivo
run-parameters: male, Sprague-Dawley, rat, plasma, po, 0.5 mg/animal
experimental-readout: AUC(0-t)
Record the result as a number with its unit.

q: What AUC(0-t) value was documented for this compound, C[C@@]1(Cc2ccc(C#N)cc2)CC2C3CCc4c(C#N)cccc4C3CC[C@]2(C)[C@H]1O (stereo partly shown) ?
a: 2370 ng·h/mL
